target: Ba/F3 BCR-ABL1 P465S (Homo sapiens, UniProt P00519+P11274, P465S); construct: BCR (N-terminal fusion partner of the oncoprotein); assay: Cell growth inhibitory activity assay (CellTiter-Glo), Ba/F3 BCR-ABL1 P465S cells; details: 72 h, CTG cell viability
assay_readout: IC50

[Q] Write down the reported IC50 of `CC(C)n1cnc2cc(C(=O)Nc3ccc(OC(F)(F)Cl)cc3)cc(-c3cnc4c(c3)C(=O)N(C)C4)c21` , test system: Ba/F3 BCR-ABL1 P465S (Homo sapiens, UniProt P00519+P11274, P465S).
[A] 50 to 1000 nM

[Q] Also `C[C@@H]1COCc2nc3cc(C(=O)Nc4ccc(OC(F)(F)Cl)cc4)cc(-c4cnc5c(c4)-c4nn(-c6cncnc6)cc4C5)c3n21` ?
[A] 50 to 1000 nM

[Q] For `C[C@@H]1COCc2nc3cc(C(=O)Nc4ccc(OC(F)(F)Cl)cc4)cc(-c4cnc5c(c4)-c4nn(-c6ncccn6)cc4C5)c3n21` then?
[A] 5 to 50 nM

[Q] And `C[C@@H]1COCc2nc3cc(C(=O)Nc4ccc(OC(F)(F)Cl)cc4)cc(-c4cnc5c(c4)-c4c(cnn4-c4nccc(C#N)n4)C5)c3n21` ?
[A] 50 to 1000 nM

[Q] Thanks! And `C[C@@H]1COCc2nc3cc(C(=O)Nc4ccc(OC(F)(F)Cl)cc4)cc(-c4cnc5c(c4)-c4nn(-c6ccccn6)cc4C5)c3n21` ?
[A] 50 to 1000 nM

[Q] Please give the result for `C[C@@H]1COCc2nc3cc(C(=O)Nc4ccc(OC(F)(F)Cl)cc4)cc(-c4cnc5c(c4)-c4nn(-c6ncc(F)cn6)cc4C5)c3n21` too.
[A] 5 to 50 nM

---

Target: Ba/F3 BCR-ABL1 WT (Homo sapiens, UniProt P00519+P11274)
Construct: BCR (N-terminal fusion partner of the oncoprotein)
Sequence (P00519 28-1130 limits assumed, one chain of several): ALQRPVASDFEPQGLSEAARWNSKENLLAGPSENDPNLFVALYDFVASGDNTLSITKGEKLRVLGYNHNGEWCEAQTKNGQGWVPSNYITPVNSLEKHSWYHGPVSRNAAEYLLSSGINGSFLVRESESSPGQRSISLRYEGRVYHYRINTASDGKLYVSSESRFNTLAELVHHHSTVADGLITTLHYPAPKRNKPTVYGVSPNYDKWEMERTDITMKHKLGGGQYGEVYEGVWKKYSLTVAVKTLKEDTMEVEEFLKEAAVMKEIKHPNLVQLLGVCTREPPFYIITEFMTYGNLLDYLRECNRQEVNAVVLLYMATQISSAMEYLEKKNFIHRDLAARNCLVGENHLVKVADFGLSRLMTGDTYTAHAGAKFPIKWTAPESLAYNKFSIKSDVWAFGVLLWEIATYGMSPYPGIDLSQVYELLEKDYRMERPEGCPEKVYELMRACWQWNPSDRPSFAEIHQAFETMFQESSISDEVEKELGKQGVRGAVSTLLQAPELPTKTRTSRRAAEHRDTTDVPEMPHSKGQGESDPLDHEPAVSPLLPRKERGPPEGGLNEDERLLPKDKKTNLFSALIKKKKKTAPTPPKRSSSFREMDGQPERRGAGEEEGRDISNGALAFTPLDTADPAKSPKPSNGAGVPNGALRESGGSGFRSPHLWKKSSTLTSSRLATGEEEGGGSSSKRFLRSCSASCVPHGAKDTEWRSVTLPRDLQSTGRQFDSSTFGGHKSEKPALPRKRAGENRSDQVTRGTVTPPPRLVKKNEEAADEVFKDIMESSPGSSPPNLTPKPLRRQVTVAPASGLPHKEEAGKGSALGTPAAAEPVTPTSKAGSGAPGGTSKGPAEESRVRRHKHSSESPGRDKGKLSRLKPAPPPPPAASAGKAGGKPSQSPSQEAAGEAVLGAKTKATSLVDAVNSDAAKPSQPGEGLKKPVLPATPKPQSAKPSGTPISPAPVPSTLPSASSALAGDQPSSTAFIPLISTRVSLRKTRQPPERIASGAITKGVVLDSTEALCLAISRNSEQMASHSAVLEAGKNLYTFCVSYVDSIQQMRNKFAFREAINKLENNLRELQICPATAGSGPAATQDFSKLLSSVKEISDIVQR
Experiment: Cell growth inhibitory activity assay (CellTiter-Glo), Ba/F3 BCR-ABL1 WT cells
Details: 72 h, CTG cell viability
Description: In this assay, the Celltiter-Glo (CTG) kit provided by Promega was used, and it is a homogeneous cell viability assay method. The cell viability of cultured cells was measured by quantifying ATP. […] The steps of cell viability assay are as follows: • a) Cells in logarithmic growth phase were collected. Cell suspension was prepared and the cells were counted. […]
pIC50: −log10 of the molar value.
Field: pIC50. Provide a value for each of the molecules that follow.

[Q] Which pIC50 reading was recorded for the molecule C[C@@H]1COCc2nc3cc(C(=O)Nc4ccc(OC(F)(F)Cl)cc4)cc(-c4cnc5c(c4)-c4nc(N)sc4C5)c3n21 [T-114] ?
[A] ≥ 8.30

[Q] Subsequent entry: COc1cnc(-n2cc3c(n2)-c2cc(-c4cc(C(=O)Nc5ccc(OC(F)(F)Cl)cc5)cc5nc6n(c45)[C@H](C)COC6)cnc2C3)nc1 [T-77]
[A] ≥ 8.30

[Q] Now try Cc1cnc(-n2cc3c(n2)-c2cc(-c4cc(C(=O)Nc5ccc(OC(F)(F)Cl)cc5)cc5nc6n(c45)[C@H](C)COC6)cnc2C3)nc1 [T-74] .
[A] ≥ 8.30

[Q] Also N#Cc1cnc(-n2cc3c(n2)-c2cc(-c4cc(C(=O)Nc5ccc(OC(F)(F)Cl)cc5)c(N)nc4N4CC[C@@H](F)C4)cnc2C3)nc1 [T-134] , if possible.
[A] ≥ 8.30

[Q] Next molecule: C[C@@H]1COCc2nc3cc(C(=O)Nc4ccc(OC(F)(F)Cl)cc4)cc(-c4cnc5c(c4)-c4nn(-c6nccc(C#N)n6)cc4C5)c3n21 [T-69-B]
[A] ≥ 8.30

[Q] Try this molecule too: C[C@@H]1CCOc2nc3cc(C(=O)Nc4ccc(OC(F)(F)Cl)cc4)cc(-c4cnc5c(c4)C(=O)N(C)C5)c3n21 [T-24]
[A] 7.30 to 8.30

These measurements were taken from patent EP4768484A1.
